assayed_system: Nuclear factor erythroid 2-related factor 2 (Homo sapiens)
experiment_summary: Induction of Nrf2-mediated ARE activity in human HepG2-ARE-C8 cells at 5 uM after 12 hrs by luciferase reporter gene assay relative to control
Assay type: cell-based
fold change (FC) values by entry
Form field (numeric): enter value without unit.

Use these answered entries as a reference point.
compound="COc1ccccc1C(=O)/C=C1\\NCC2c3ccccc3CCN2C1=O (stereo not drawn)" assay_result=1.78
compound="COc1ccc2c(c1)C1CN/C(=C\\C(=O)c3cccc(Cl)c3)C(=O)N1CC2 (stereo not drawn)" assay_result=6.49
compound="O=C(/C=C1\\NCC2c3ccccc3CCN2C1=O)c1cccc([N+](=O)[O-])c1 (stereo not drawn)" assay_result=14.5
compound="COc1ccc2c(c1)C1CN/C(=C\\C(=O)c3ccc(F)cc3)C(=O)N1CC2 (stereo not drawn)" assay_result=1.82
compound="O=C(/C=C1\\NCC2c3ccccc3CCN2C1=O)c1cccc(F)c1 (stereo not drawn)" assay_result=29.1

# fold change (FC) of COc1cc2c(cc1OC)C1CN/C(=C\C(=O)c3ccc(F)cc3)C(=O)N1CC2 (stereo not drawn) = 1.82

COc1ccc2c(c1)C1CN/C(=C\C(=O)c3ccccc3F)C(=O)N1CC2 (stereo not drawn) has a reported fold change (FC) of 9.84

In plain terms, O=C(/C=C1\NCC2c3ccccc3CCN2C1=O)c1cccc(Br)c1 (stereo not drawn) has a documented fold change (FC) of 12

What the record says about CC(C)(C)c1cc(O)ccc1O : fold change (FC) is 1.04

The recorded fold change (FC) for O=C(/C=C1\NCC2c3ccccc3CCN2C1=O)c1ccc(Cl)cc1 (stereo not drawn) is 3.57

So for COc1ccc(C(=O)/C=C2\NCC3c4ccccc4CCN3C2=O)cc1 (stereo not drawn) , the logged fold change (FC) turned out to be 3.3

Quick note, fold change (FC) for O=C(/C=C1\NCC2c3ccccc3CCN2C1=O)c1ccc(F)c(F)c1 (stereo not drawn) landed at 5.47

Briefly, fold change (FC) measured for COc1ccc2c(c1)CCN1C(=O)/C(=C/C(=O)c3cccc(F)c3)NCC21 (stereo not drawn) : 5.65

// field: fold change (FC); key: COc1cccc2c1CCN1C(=O)/C(=C/C(=O)c3ccccc3F)NCC21 (stereo not drawn) ; value = 5.89
